Where these numbers come from: the supplement of paper PMC9170038

System: MS2 coat protein
testMethodNotes: apparent KD of MS2 coat protein; designed switch direction (-1 OFF switch, 1 ON switch): -1; higher = weaker reporter binding
testContext: input ligand: none
Think of 40 nM as a floor: if apparent KD of MS2 coat protein stands on it or above, it is Satisfied; beneath it, Not satisfied.

UUAAUUCGGAUUCUUGAAAUACAUGAGGAUCACCCAUGUUCACAGGAUAUUGAUUAUGUUAGUAACAAGAAGGGUGUAACAUAU [JR_ExcNG3_Sub036] (Eterna round: R96, puzzle: Exclusion NG 3) ... Not satisfied
GUCUCCAGAGGAUAUCUUUUACGCGACAUGAGGAUCACCCAUGUAGAGGAGAUUGUCAGGAGAGAAGGCUGGGACG [Eternabot (L1) Solution 56] (Eterna round: R97, puzzle: Exclusion 5) ... Satisfied
AUAAUGUGAGGAUAUAUGAAUCACGGUGAUACACCGUGAAGAUAGAAGGUACAUGAGGAUCACCCAUGUAGGGC [Mod of Anonveat 14 - Jieux - Exclusion 4] (Eterna round: R97, puzzle: Exclusion 4) ... Satisfied
AGCAGACGAGGAUAUAAAUUUAAAUACAUGAGGAUCACCCAUGUAUAAAUGUAUUUAAAUUUAGAAGGCGUCUGCU [E5/12-A1] (Eterna round: R97, puzzle: Exclusion 5) ... Satisfied
CACUAACAUGAGGAUCACCCAUGUUAGGAUAUGCAGUUCGGCCAACGGGCCCGAACAUGUAGAAGGAACAGGGU [Eternabot (L2) Solution 44] (Eterna round: R97, puzzle: Exclusion 1) ... Not satisfied
GCAGCAUAGUUAACAUACUGUUACAUGAGGAUCACCCAUGUACAGGAUAUGGUCUGGAUUACAGGCCAGAAGGGUACAAGCUGC [Eli exng3 - 020] (Eterna round: R96, puzzle: Exclusion NG 3) ... Not satisfied

**Query** Test whether the sequence UAAGCAAGUGAGCCGAUUCACAUGAGGAUCACCCAUGUAAGAGAGGAUAUUUGAUUGGAUCGAUUAGAGAAGGUUCUAAUGUGG [Eternabot solution 25] (Eterna round: R96, puzzle: Exclusion NG 3) records apparent KD of MS2 coat protein of 40 nM or higher.
**Result** Not satisfied
